tested on: human APOE RNA; experiment: Activity in APOE C57BL/6NTac-Apoeem7250 knock-in mice, single ICV bolus, 8 weeks (Example 11); type: in vivo; conditions: cortex; single ICV bolus 300 μg; 8 weeks post treatment; normalized to mouse Ppia
Strand notation (5' to 3'): a small letter for the sugar, then the base; units joined by * are phosphorothioate-linked, units joined directly phosphodiester-linked; [ ] holds rarer units or linkages, { } end groups; capitals alone tell only the bases. [ms] = mesyl phosphoramidate linkage; e = 2'-O-(2-methoxyethyl) (MOE); k = constrained ethyl (cEt); [5mC] = 5-methylcytosine; d = 2'-deoxy (DNA)
Label class 1 when APOE RNA (% control) Cortex < 40 % control; otherwise class 0.

Substance	Class Label
1652908: 5-10-5 MOE gapmer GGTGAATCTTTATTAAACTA, linkages soooszzzsssssssooss (antisense eG*eGeTeGeA*dA[ms]dT[ms]d[5mC][ms]dT*dT*dT*dA*dT*dT*dA*eAeAe[5mC]*eT*eA) [compound 1652908]	class 0
1778154: modified oligonucleotide complementary to human APOE RNA (e[5mC]*eT*eTeGeGeT*dG[ms]dA[ms]dA*dT*d[5mC]*dT*dT*dT*dA*dT*kTkAeA*eA; antisense) [compound 1778154]	class 1
1785599: modified oligonucleotide complementary to human APOE RNA (k[5mC]*kT*kT*dG[ms]dG[ms]dT[ms]dG[ms]dA[ms]dA[ms]dT[ms]d[5mC]*dT*dT*dT*dA*dT*kT*kA*dA[ms]kA; antisense) [compound 1785599]	class 1
1778112 (eA*e[5mC]eTeTeGkG*dT*dG[ms]dA[ms]dA*dT*d[5mC]*dT*dT*dT*dA[ms]eTeT*eA*eA; antisense) [Compound 1778112]	class 0
1757575 (eA*e[5mC]eTeT*kG*kG*dT*dG[ms]dA[ms]dA[ms]dT*d[5mC]*dT*dT*dT*dA[ms]kT*eT*eA*eA; antisense) [Compound 1757575]	class 1

----------
system: human APOE RNA; assay: Dose-dependent inhibition of human APOE RNA in HepG2 cells, electroporation, 50,000 cells per well, RT-PCR normalized to GAPDH (Example 4, Tables 8-10); format: cell-based; conditions: HepG2 cells, electroporation, 24-hour treatment, 205 nM, Table 8
Strand notation (5' to 3'): a small letter for the sugar, then the base; units joined by * are phosphorothioate-linked, units joined directly phosphodiester-linked; [ ] holds rarer units or linkages, { } end groups; capitals alone tell only the bases. [ms] = mesyl phosphoramidate linkage; e = 2'-O-(2-methoxyethyl) (MOE); k = constrained ethyl (cEt); [5mC] = 5-methylcytosine; d = 2'-deoxy (DNA)
Recorded APOE RNA (% UTC) 205 nM by entry
Attribute Measured: APOE RNA (% UTC) 205 nM

Substance	Experimental Result
Aes^mCeoTeoTesGesGksTdsGdzAdzAdzTds^mCdsTdsTdsTdsAdzTksTksAesAe (eA*e[5mC]eTeT*eG*kG*dT*dG[ms]dA[ms]dA[ms]dT*d[5mC]*dT*dT*dT*dA[ms]kT*kT*eA*eA) [Compound No. 1757576]	46
1778128: modified oligonucleotide complementary to human APOE RNA (eA*e[5mC]eTeTkGkG*dT*dG[ms]dA[ms]dA*dT*d[5mC]*dT*dT*dT*dA[ms]kTeT*eA*eA; antisense) [compound 1778128]	39
1785617: modified oligonucleotide complementary to human APOE RNA (k[5mC]*dT[ms]dT[ms]kG*dG[ms]kT*dG[ms]dA[ms]dA[ms]dT[ms]d[5mC]*dT*dT*dT*dA*dT*kT*kA*dA[ms]kA; antisense) [compound 1785617]	93
1785599: modified oligonucleotide complementary to human APOE RNA (k[5mC]*kT*kT*dG[ms]dG[ms]dT[ms]dG[ms]dA[ms]dA[ms]dT[ms]d[5mC]*dT*dT*dT*dA*dT*kT*kA*dA[ms]kA; antisense) [compound 1785599]	65
